Record form. Attribute: max response. Fill in for each entry.
assay.info: qHTS Assay for Lipid Storage Modulators (AID 1519)
recorded.conditions: Drosophila S3 cells, BODIPY lipid droplet/cell ratio, laser cytometry; measured here: cell count channel max response; cells loaded with oleic acid
Results filed as inconclusive are left out.
Numbers only, in %.

// batch mode: one max response value per listed entry
1. CCC1(C2=NCCN2)Cc2ccccc2O1 (configuration not stated)
2. CC(CCc1ccccc1)NC(C)C(O)c1ccc(O)cc1 (configuration not stated)
3. CCn1cc(C(=O)O)c(=O)c2ccc(C)nc21
4. NCC(CC(=O)O)c1ccc(Cl)cc1 (configuration not stated)
5. CNCCC(Oc1ccc(C(F)(F)F)cc1)c1ccccc1 (configuration not stated)
6. c1ccc2c(c1)OCC(C1=NCCN1)O2 (configuration not stated)
7. CCC(COC(=O)c1cc(OC)c(OC)c(OC)c1)(c1ccccc1)N(C)C (configuration not stated)
8. Cc1ncc(CNC(=O)N(CCCl)N=O)c(N)n1

Reply:
1. -3.38
2. -1.34
3. 0.0975
4. 16.5
5. -0.474
6. 8.3
7. -7.6
8. 9.89

// batch mode: one max response value per listed entry
1. CN(C)C(=O)C(CCN1CCC(O)(c2ccc(Cl)cc2)CC1)(c1ccccc1)c1ccccc1
2. Clc1ccc(COC(Cn2ccnc2)c2ccc(Cl)cc2Cl)cc1 (configuration not stated)
3. CC[N+]1(C)CCCC(OC(=O)C(O)(c2ccccc2)c2ccccc2)C1 (configuration not stated)
4. CC(C)=CC1C(C(=O)OCc2cccc(Oc3ccccc3)c2)C1(C)C (configuration not stated)

Reply:
1: -1; 2: -16.9; 3: 5.8; 4: 10.5

###

assay.info: qHTS for Inhibitors of the Functional Ribonucleoprotein Complex (vRNP) of Lassa (LASV) Arenavirus: Viability assay - alamar blue signal for LASV Primary Screen (AID 1347083); further: nearly all actives have a fitted effect of over 80% in size
recorded.conditions: cell viability, alamar blue fluorescence (LASV minigenome counter-screen); series mostly up to 57.5 µM
Results filed as inconclusive are left out. Calls of active or inactive are those of the source. The call rests on the fitted dose curve; tested in HEK293 reporter line.
// allowed return values: YES = active, NO = inactive

Illustrative cases are given below, each with its answer.
compound: CCC1C(=O)OCC1Cc1cncn1C (stereo not drawn)
category: NO
--
compound: O=C1CC[C@@]2(O)[C@H]3Cc4ccc(O)c5c4[C@@]2(CCN3CC2CC2)[C@H]1O5
category: NO
--
compound: CC(C)(C#N)c1cc(Cn2cncn2)cc(C(C)(C)C#N)c1
category: NO

Query: Outcome logged for OCCN1CCN(CCCN2c3ccccc3Sc3ccc(C(F)(F)F)cc32)CC1 in this assay:
Reply: NO

Query: Outcome logged for CC(C)C[C@H](NC(=O)[C@H](CCc1ccccc1)NC(=O)CN1CCOCC1)C(=O)N[C@@H](Cc1ccccc1)C(=O)N[C@@H](CC(C)C)C(=O)[C@@]1(C)CO1 in this assay:
Reply: YES

Query: Outcome logged for CCOC(=O)Nc1ccc2c(c1)N(C(=O)CCN1CCOCC1)c1ccccc1S2 in this assay:
Reply: NO

Query: Outcome logged for Oc1ccccc1-c1ccccc1 in this assay:
Reply: NO

Query: Outcome logged for CC(=O)SC[C@@H](C)C(=O)N1CCC[C@H]1C(=O)N[C@@H](Cc1ccccc1)C(=O)O in this assay:
Reply: NO

Query: Outcome logged for COc1cc2c(N3CCN(C(=O)Nc4ccc(OC(C)C)cc4)CC3)ncnc2cc1OCCCN1CCCCC1 in this assay:
Reply: NO

Query: Outcome logged for O=c1[nH]c2ccccc2n1C1CCN(CCCC(c2ccc(F)cc2)c2ccc(F)cc2)CC1 in this assay:
Reply: NO
